Hello, the source for this data is patent US20070082903A1, in case you need it.

Assay: repeated oral administration toxicity test, SMP-114 concentration in serum (HPLC-fluorescence)
Assay type: in vivo
Details: both sexes, Crj:CD(SD), rat, oral, rats, calculated for a dose of 5 mg/kg, read-out: AUC0-24 for the exhibition of efficacy

Compound structure	AUC(0-t)
C[C@@H](c1ccc(-c2ccccc2)c(F)c1)c1cc(/N=C(/N)N2CCOCC2)on1	2710 to 3580 ng·h/mL
